Below, each entry is listed with its recorded melting point.

Examples with their reported melting point follow.
CCOC(=O)C(=O)Cc1c(OCc2ccccc2)cc(C)cc1[N+](=O)[O-]; 80 to 82 °C
COc1cc(C(=O)NS(=O)(=O)c2ccccc2C)ccc1Cc1cn(C)c2ccc(CCNC(=O)N(C)C)cc12; 124 to 131 °C
CC(=O)Oc1ccc(-n2cc(C(=O)O)c(=O)cc2-c2ccc(N(C)C)cc2)cc1; 128 to 131 °C
CC(C)COc1ccc(F)cc1OCCOS(C)(=O)=O; 53 to 55 °C

Pending compound:
# get_value(readout='melting point', item= `CC(C)c1nc(CO)n(Cc2cnc3ccccc3c2)c1Sc1cc(Cl)cc(Cl)c1` )
167 to 170 °C

====

reported-metric: melting point

Examples with their reported melting point follow.
O=C(O)C=CC(=O)N(CC1CO1)NCC1CO1 (stereo unspecified); 58 °C
O=c1occ(-c2ccccc2)n1-c1ccc(F)cc1; 145 to 147 °C
O=C(O)CCCNc1ccnn1-c1c(Cl)cc(C(F)(F)F)cc1Cl; 160 to 162 °C

# get_value(readout='melting point', item= `CNC(=O)NC1CCCCC1` )
135 to 136 °C

====

reported-metric: melting point

Examples with their reported melting point follow.
C[Si](C)(C)OCCOC(=O)c1ccccc1S(N)(=O)=O; 72 to 76 °C
O=C1C(=O)c2ccccc2C2=C1SCC1(CCN(CC(O)Cc3ccccc3)CC1)O2 (stereo unspecified); 82 to 84 °C
Nc1cccc(Cn2c(-c3ccccc3)ccc2-c2ccccc2)n1; 143 to 144 °C
C=C1C2=C(CCCC2)C(=O)N1c1ccc(Cl)cc1F; 84 to 85.5 °C
Cc1c(C)c(N2CCN(c3ccc(C(F)(F)F)cc3)CC2)c(C)c2c1OC(C)(C)C2O (stereo unspecified); 212 to 214 °C

# get_value(readout='melting point', item= `FC(F)(F)c1cccc(-c2ccc3nncn3n2)c1` )
140 to 143 °C

// next record CCOC(=O)C1CCC(=C(C#N)C(=O)c2ccc(Cl)cc2)N1 (stereo unspecified)
108 to 110 °C

// next record `O=c1cc(-c2ccc(Cl)cc2)sc(N2CCOCC2)c1`
202 to 204 °C

// next record `O=Cc1cc(N2CCN(Cc3ccccc3)CC2)ccc1O`
101 to 103 °C

// next record `CCc1ncc(CCCO)n1C`
69 to 71 °C

// next record CC(CCc1ccc(C(C)C(=O)O)cc1)C(=O)O (stereo unspecified)
107 to 109 °C

// next record `CCNC(=O)c1ccc(F)c(NC(=O)c2cc(C(C)(C)C)nn2CC)c1`
188 °C

// next record `CC1(C)CCC(C)(C)c2cc(-c3nnc(-c4ccc(C(N)=O)cc4)o3)ccc21`
272 to 274 °C

// next record `CCCCCc1cn(CCCC)c(=O)n1Cc1ccc(-c2ccccc2-c2nnn[nH]2)nc1`
176 to 177 °C

====

reported-metric: melting point

Examples with their reported melting point follow.
C#CCn1cc(F)c(SC)nc1=O; 101 to 102 °C
Cc1nn(C)c2c(Cl)nc(C3CC3)nc12; 87 to 90 °C
COc1cc(CC2NC(=O)NC2=O)cc(OC)c1OC (stereo unspecified); 180 to 181 °C
COc1ccc(C2=NN(Cc3ccc(C(=O)O)cc3)C(=O)[C@H]3CCCC[C@@H]23)cc1OC1CCCC1 (relative stereo); 189 to 190 °C
Cn1cc(-c2ccccc2)c(=S)c(-c2cccc(Cl)c2)c1; 190 to 193 °C
CCCCCCCCCN1C(=O)C=CC1=O; 45 to 47 °C
CCN(CC)CCNC(=O)c1cc(Cl)c(N)cc1OCCOC; 108 to 110 °C
CC(C)(C)c1cc(NC(=O)NNC(=O)c2ccc([N+](=O)[O-])cc2)cc(C(C)(C)C)c1O; 163 to 164 °C

# get_value(readout='melting point', item= `Cc1cc2ccccn2c1C(=O)c1ccc2c(c1)c(=O)c(C(=O)O)cn2C` )
308 °C

// next record `COc1ccc(-n2cnc3ccc(-c4nnc(CCc5cccc(C#N)c5)o4)cc32)cc1`
125 to 127 °C

// next record `CC(=NO)c1cc2c3ccccc3[nH]c(=O)n2n1`
340 to 342 °C

All values here come from a melting point compilation (Tetko et al.; mined from patent text by program, amines drawn as free bases though some values may be those of a salt).
